assayed-target: P2X7 receptor (Homo sapiens)
test: Screen Quest Fluo-8 No Wash Calcium Assay (Bz-ATP evoked Ca2+ influx, FLIPR)
Assay type: cell-based
Set-up: hP2X7 (IC50; nM); other: hP2X7; HEK-293 cells stably transfected with P2X7 receptor, Bz-ATP at EC80, Fluo-8 NW; potency
condition-notes: hP2X7; HEK-293 cells stably transfected with P2X7 receptor, Bz-ATP at EC80, Fluo-8 NW; potency ranges A-D
IC50 listing for selected compounds.

Some compounds with recorded IC50:
[
  {
    "record-smiles": "O=c1onc(Cc2ccc(Cl)cc2Cl)n1CC1CCC(F)(F)CC1",
    "measured-parameter": "IC50",
    "result": "< 200 nM"
  },
  {
    "record-smiles": "Cc1ncccc1Cc1noc(=O)n1CC1CCCCC1",
    "measured-parameter": "IC50",
    "result": "200 to 1000 nM"
  }
]

IN: Report IC50 for `O=c1onc(CN2CCCCC2)n1Cc1ccc(F)cc1` please.
OUT: > 10000 nM

IN: Report IC50 for `COc1cc(Cn2c(Cc3ccc(F)cc3)noc2=O)cc(OC)c1` please.
OUT: > 10000 nM

IN: Report IC50 for `O=c1onc(Cc2c(F)cccc2Cl)n1Cc1ncco1` please.
OUT: > 10000 nM

====

assayed-target: P2X7 receptor (Rattus norvegicus, UniProt Q64663)
Construct: rP2X7 (IC50; nM); other: rP2X7; HEK-293 cells stably transfected with P2X7 receptor, Bz-ATP at EC80, Fluo-8 NW; potency
Sequence (Q64663 whole entry): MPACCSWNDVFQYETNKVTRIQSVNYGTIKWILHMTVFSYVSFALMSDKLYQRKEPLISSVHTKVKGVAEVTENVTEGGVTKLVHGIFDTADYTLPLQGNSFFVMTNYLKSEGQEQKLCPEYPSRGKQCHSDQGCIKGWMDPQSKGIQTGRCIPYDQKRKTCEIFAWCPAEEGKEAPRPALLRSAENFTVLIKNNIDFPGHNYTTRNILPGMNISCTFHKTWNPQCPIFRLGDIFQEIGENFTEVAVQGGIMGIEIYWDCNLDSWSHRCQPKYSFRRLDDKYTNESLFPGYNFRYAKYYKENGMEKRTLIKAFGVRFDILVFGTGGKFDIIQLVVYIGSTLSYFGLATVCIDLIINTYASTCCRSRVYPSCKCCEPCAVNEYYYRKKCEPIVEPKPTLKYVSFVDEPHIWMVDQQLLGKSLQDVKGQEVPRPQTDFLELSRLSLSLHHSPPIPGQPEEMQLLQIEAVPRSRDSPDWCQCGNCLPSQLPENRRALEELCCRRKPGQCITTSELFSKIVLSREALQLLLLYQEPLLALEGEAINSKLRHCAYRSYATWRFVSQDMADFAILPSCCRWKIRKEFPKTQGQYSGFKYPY
test: Screen Quest Fluo-8 No Wash Calcium Assay (Bz-ATP evoked Ca2+ influx, FLIPR)
Assay type: cell-based
condition-notes: rP2X7; HEK-293 cells stably transfected with P2X7 receptor, Bz-ATP at EC80, Fluo-8 NW; potency ranges A-D
IC50 listing for selected compounds.

[
  {
    "compound": "CC(c1ccccc1)n1c(Cc2c(F)cccc2Cl)noc1=O (centres unmarked) [Example 49]",
    "measured-parameter": "IC50",
    "result": "200 to 1000 nM"
  },
  {
    "compound": "O=c1onc(Cc2c(F)cccc2Cl)n1Cc1ncco1 [Example 32]",
    "measured-parameter": "IC50",
    "result": "> 10000 nM"
  },
  {
    "compound": "CCCCn1c(Cc2c(F)cccc2Cl)noc1=O [Example 177]",
    "measured-parameter": "IC50",
    "result": "1000 to 10000 nM"
  },
  {
    "compound": "Cc1noc(C)c1Cc1noc(=O)n1Cc1ccc(F)cc1 [Example 208]",
    "measured-parameter": "IC50",
    "result": "1000 to 10000 nM"
  }
]

IN: Query for P2X7 receptor (Rattus norvegicus, UniProt Q64663): what IC50 does the record show for O=c1onc(CC2CCC(F)(F)C2)n1Cc1c(F)cccc1Cl (centres unmarked) [Example 205] ?
OUT: < 200 nM

====

assayed-target: P2X7 receptor (Mus musculus)
Construct: mP2X7 (IC50; nM); other: mP2X7; HEK-293 cells stably transfected with P2X7 receptor, Bz-ATP at EC80, Fluo-8 NW; potency
Sequence (Q9Z1M0 1-595): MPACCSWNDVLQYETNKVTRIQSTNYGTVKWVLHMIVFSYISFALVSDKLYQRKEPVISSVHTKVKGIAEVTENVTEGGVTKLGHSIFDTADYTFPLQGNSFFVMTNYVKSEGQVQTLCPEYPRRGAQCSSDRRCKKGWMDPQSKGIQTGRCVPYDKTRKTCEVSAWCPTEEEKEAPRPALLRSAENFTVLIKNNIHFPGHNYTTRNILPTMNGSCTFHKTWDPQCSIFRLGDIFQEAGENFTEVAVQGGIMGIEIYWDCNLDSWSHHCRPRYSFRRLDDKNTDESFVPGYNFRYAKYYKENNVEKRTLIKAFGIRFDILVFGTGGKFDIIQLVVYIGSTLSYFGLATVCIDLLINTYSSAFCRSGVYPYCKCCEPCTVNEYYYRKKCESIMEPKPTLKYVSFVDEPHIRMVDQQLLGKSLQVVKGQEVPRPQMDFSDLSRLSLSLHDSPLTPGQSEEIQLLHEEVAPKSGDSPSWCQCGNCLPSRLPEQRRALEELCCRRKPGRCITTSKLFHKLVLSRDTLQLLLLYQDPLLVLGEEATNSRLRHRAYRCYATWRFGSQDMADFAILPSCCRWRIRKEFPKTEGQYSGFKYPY
test: Screen Quest Fluo-8 No Wash Calcium Assay (Bz-ATP evoked Ca2+ influx, FLIPR)
Type: cell-based
condition-notes: mP2X7; HEK-293 cells stably transfected with P2X7 receptor, Bz-ATP at EC80, Fluo-8 NW; potency ranges A-D
IC50 listing for selected compounds.

IN: Query for P2X7 receptor (Mus musculus): what IC50 does the record show for O=c1onc(CC2CCC(F)(F)C2)n1Cc1ccc(F)cc1 (stereo not shown) [Example 204] ?
OUT: > 10000 nM

IN: Query for P2X7 receptor (Mus musculus): what IC50 does the record show for O=c1onc(Cc2c(F)cccc2Cl)n1CC1CC2CCC1C2 (stereo not shown) [Example 88] ?
OUT: 200 to 1000 nM

IN: Query for P2X7 receptor (Mus musculus): what IC50 does the record show for O=c1onc(CC2CCCCC2)n1Cc1c(F)cccc1Cl [Example 130] ?
OUT: 200 to 1000 nM

====

assayed-target: P2X7 receptor (Mus musculus, UniProt Q9Z1M0)
Construct: mP2X7 (IC50; nM); other: mP2X7; HEK-293 cells stably transfected with P2X7 receptor, Bz-ATP at EC80, Fluo-8 NW; potency
test: Screen Quest Fluo-8 No Wash Calcium Assay (Bz-ATP evoked Ca2+ influx, FLIPR)
Format: cell-based
condition-notes: mP2X7; HEK-293 cells stably transfected with P2X7 receptor, Bz-ATP at EC80, Fluo-8 NW; potency ranges A-D
measured-parameter: IC50

[
  {
    "compound": "O=c1onc(CN2CCOc3ccccc32)n1Cc1ccc(F)cc1 [Example 228]",
    "IC50": "200 to 1000 nM"
  },
  {
    "compound": "O=c1onc(Cc2c(F)cccc2Cl)n1Cc1ccc(C(F)(F)F)cc1 [Example 63]",
    "IC50": "1000 to 10000 nM"
  },
  {
    "compound": "O=c1onc(Cc2c(F)cccc2Cl)n1Cc1ccc(C(F)(F)F)nc1 [Example 37]",
    "IC50": "1000 to 10000 nM"
  },
  {
    "compound": "O=c1onc(Cc2ccccc2F)n1Cc1c(F)cccc1Cl [Example 19]",
    "IC50": "> 10000 nM"
  }
]

IN: Query for P2X7 receptor (Mus musculus, UniProt Q9Z1M0): what IC50 does the record show for O=c1onc(CN2CCc3ccccc3C2)n1Cc1c(F)cccc1Cl [Example 244] ?
OUT: 200 to 1000 nM

IN: Query for P2X7 receptor (Mus musculus, UniProt Q9Z1M0): what IC50 does the record show for O=c1onc(Cc2cccc(Cl)c2Cl)n1CC1CCCCC1 [Example 115] ?
OUT: 1000 to 10000 nM

====

assayed-target: P2X7 receptor (Homo sapiens, UniProt Q99572)
Sequence (Q99572 whole entry): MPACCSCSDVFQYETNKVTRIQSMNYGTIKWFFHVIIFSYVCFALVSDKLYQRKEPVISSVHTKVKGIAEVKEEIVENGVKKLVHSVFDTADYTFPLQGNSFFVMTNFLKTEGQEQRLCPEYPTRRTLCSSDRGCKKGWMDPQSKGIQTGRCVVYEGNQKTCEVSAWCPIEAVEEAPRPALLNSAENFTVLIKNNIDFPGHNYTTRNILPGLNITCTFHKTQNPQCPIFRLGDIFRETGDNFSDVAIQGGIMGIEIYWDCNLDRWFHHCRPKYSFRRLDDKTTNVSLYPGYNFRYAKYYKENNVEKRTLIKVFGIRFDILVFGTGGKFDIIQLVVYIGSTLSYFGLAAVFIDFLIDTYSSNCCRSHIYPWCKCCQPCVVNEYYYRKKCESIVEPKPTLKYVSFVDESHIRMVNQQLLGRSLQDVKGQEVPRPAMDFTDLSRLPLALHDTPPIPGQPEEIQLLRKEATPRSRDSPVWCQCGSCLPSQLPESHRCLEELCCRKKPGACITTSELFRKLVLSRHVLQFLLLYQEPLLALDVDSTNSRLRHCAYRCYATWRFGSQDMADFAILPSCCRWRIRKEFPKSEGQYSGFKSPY
test: YO-PRO-1 uptake assay
Assay type: cell-based
Set-up: expressed in transfected cells
condition-notes: HEK-293 cells stably transfected with P2X7 receptor; Bz-ATP EC80 (30 μM); Low Divalent Cation Assay Buffer
IC50 listing for selected compounds.
Reply with just the number (in nM).

Some compounds with recorded IC50:
[
  {
    "compound": "O=c1onc(Cc2c(F)cccc2Cl)n1CC1CCCCC1",
    "IC50 (nM)": 30
  },
  {
    "compound": "O=c1onc(Cc2ccc(Cl)cc2Cl)n1CC1CCCCC1",
    "IC50 (nM)": 618
  },
  {
    "compound": "O=c1onc(Cc2c(F)cccc2Cl)n1CC1CCC(F)(F)C1 (racemic) [Example 128]",
    "IC50 (nM)": 115
  }
]

IN: Report IC50 for `O=c1onc(Cc2cccc(Cl)c2Cl)n1Cc1ccc(F)cc1` please.
OUT: 461

IN: Report IC50 for O=c1onc(Cc2c(F)cccc2Cl)n1CC1CCC(F)(F)C1 (single isomer, unassigned) [Example 149] please.
OUT: 66

IN: Report IC50 for `O=c1onc(Cc2c(F)cccc2Cl)n1CCC1CCCCC1` please.
OUT: 467

IN: Report IC50 for `O=c1onc(Cc2c(F)cccc2Cl)n1CC12CCC(CC1)C2` please.
OUT: 45

IN: Report IC50 for `O=c1onc(Cc2ccc(F)cc2)n1Cc1c(F)cccc1Cl` please.
OUT: 581

IN: Report IC50 for O=c1onc(Cc2c(F)cccc2Cl)n1CC1CCCCO1 (stereo not shown) please.
OUT: 435

IN: Report IC50 for `O=c1onc(Cc2c(F)cccc2Cl)n1Cc1ccc(C(F)(F)F)o1` please.
OUT: 456
